Assay Target: Streptavidin (Streptomyces avidinii)
Assay Remarks: compounds binding control protein streptavidin – biophysical, small-molecule microarray, 635/667 nm fluorescence, artefact control for SMM compound annotation, primary screen (AID 1147);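 further: signal reflects streptavidin binding to arrayed compounds as a control protein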
Experimental Conditions: higher = more signal
Threshold check on composite z-score: at or above 0.8 gives t, strictly below gives f.

Q: Entry Cc1ccc(S[C@]2(C(=O)NC(C)C)CC(=O)N(C3CCCCC3)[C@@H]2c2ccc(CO)cc2I)cc1 : is its composite z-score no less than 0.8?
Ans: t

Q: Entry COc1ccc(C(O)C2C=CC3C(=O)N(C)C(=O)C3N2N(c2ccccc2)c2ccccc2)cc1 (configuration not stated) : is its composite z-score no less than 0.8?
Ans: t

Q: Entry [N-]=[N+]=Nc1ccccc1C[C@@]1(C(=O)NCC(O)CO)N=C(c2ccc(OCCCO)cc2)O[C@@H]1c1ccccc1 (some centres not stated) : is its composite z-score no less than 0.8?
Ans: t

Q: Entry COC(=O)[C@@]1(Cc2ccc(OC)cc2)[C@H]2c3cc(C(=O)N4CCCC4)n(Cc4ccc(Cl)c(C(F)(F)F)c4)c3C[C@H]2CN1C(=O)c1ccccc1 : is its composite z-score no less than 0.8?
Ans: t

Q: Entry CC(C)NC(=O)[C@@]1(c2ccc([N+](=O)[O-])cc2)CC(=O)N(CC23CC4CC(CC(C4)C2)C3)[C@@H]1c1ccc(CO)cc1 : is its composite z-score no less than 0.8?
Ans: f

Q: Entry CN(C)CCCC[C@@H]1NC(=O)[C@@H]2C[C@H](C(=O)NCCCCCCNC(=O)CS)[C@H](c3ccc(O)cc3)N2C1=O : is its composite z-score no less than 0.8?
Ans: f

Q: Entry O=C(NCC(O)CO)C1N=C(c2ccc(OCCCO)cc2)N(c2ccccc2)O1 (configuration not stated) : is its composite z-score no less than 0.8?
Ans: f

Q: Entry O=C(NCCN1CCOCC1)[C@@H]1c2ccccc2C(=O)N(Cc2ccccc2C(F)(F)F)[C@H]1c1ccc(CO)cc1 : is its composite z-score no less than 0.8?
Ans: f

Q: Entry CCCC[C@H]1OB(O)C[C@H]2C1=C(COc1ccccc1)C[C@H]1C(=O)C=CC(=O)[C@H]12 : is its composite z-score no less than 0.8?
Ans: f

Q: Entry CCCCC(O)C1C=CC2C(=O)N(c3ccccc3)C(=O)C2N1Nc1ccccc1 (configuration not stated) : is its composite z-score no less than 0.8?
Ans: f

Q: Entry C=C(COC)C(=O)CC[C@H](OC(=O)c1cccnc1)c1ccc(OCCO)cc1 : is its composite z-score no less than 0.8?
Ans: f

Q: Entry O=C1C2C=CC(C(O)c3c(F)cccc3Cl)N(Nc3ccc([N+](=O)[O-])cc3)C2C(=O)N1c1ccccc1 (configuration not stated) : is its composite z-score no less than 0.8?
Ans: t

Q: Entry C=C(C)[C@@H]1CC=C(C(O)C2C=CC3C(=O)N(C)C(=O)C3N2Nc2ccc([N+](=O)[O-])cc2[N+](=O)[O-])CC1 (some centres not stated) : is its composite z-score no less than 0.8?
Ans: f

Q: Entry COc1cc(OC)c(C(O)C2C=CC3C(=O)N(c4ccccc4)C(=O)C3N2Nc2ccc(C(C)C)cc2)cc1Br (configuration not stated) : is its composite z-score no less than 0.8?
Ans: t

Q: Entry C=C(CCCC)/C(=C/C[C@H](OC(C)=O)c1cccc(OCCO)c1)c1cnc2ccccc2c1 : is its composite z-score no less than 0.8?
Ans: f

Q: Entry O=C1C2C=CC(C(O)c3ccc([N+](=O)[O-])cc3)N(Nc3ccccc3F)C2C(=O)N1c1ccccc1 (configuration not stated) : is its composite z-score no less than 0.8?
Ans: f

Q: Entry COCCCNC(=O)[C@@]1(CCS(=O)(=O)c2ccccc2)COC(c2ccc(OCCCO)cc2)=N1 : is its composite z-score no less than 0.8?
Ans: t
